Data provenance: patent US10800775B2

# Tested on: IL-2 stimulated STAT5 phosphorylation on Tyr694 (JAK1/3)
# assay explanation: JAK1/3 phospho-STAT5 cellular target modulation assay, IL-2 stimulated human PBMC
# Assay type: cell-based
# condition info: IL-2 25 ng/ml, read-out: IL2-STAT5 Inhibition IC50
pIC50: −log10 of the molar value.
Form field: pIC50 (one value per entry).

>  <compound>
CC(C)OC(=O)c1cnc2[nH]ccc2c1-c1cnn([C@H](CC#N)C2CCCC2)c1 (single isomer, unassigned; enantiomer 1)

>  <pIC50>
≥ 7.00

$$$$
>  <compound>
CCOC(=O)c1cnc2[nH]ccc2c1-c1cnn([C@H](CC#N)C2CCCC2)c1 (single isomer, unassigned; stereoisomer 1)

>  <pIC50>
6.00 to 7.00

$$$$
>  <compound>
CCOC(=O)c1cnc2[nH]ccc2c1-c1cnn(C(CC#N)C2CCCC2)c1 (racemic)

>  <pIC50>
6.00 to 7.00

$$$$
>  <compound>
CCOC(=O)c1cnc2[nH]ccc2c1-c1cnn(C2(CC#N)CN(S(=O)(=O)CC)C2)c1

>  <pIC50>
≥ 7.00

$$$$
>  <compound>
CC(C)OC(=O)c1cnc2[nH]ccc2c1-c1cnn([C@@H](CC#N)C2CCCC2)c1 (single isomer, unassigned; enantiomer 2)

>  <pIC50>
≥ 7.00

$$$$
>  <compound>
CCOC(=O)c1cnc2[nH]ccc2c1-c1cnn([C@@H](CC#N)C2CCCC2)c1 (single isomer, unassigned; stereoisomer 2)

>  <pIC50>
6.00 to 7.00

$$$$
>  <compound>
CCCOC(=O)c1cnc2[nH]ccc2c1-c1cnn([C@H](CC#N)C2CCCC2)c1

>  <pIC50>
≥ 7.00

$$$$
